- Tested on: T-47D breast
- PROCEDURE TEXT: NCI tumour cell line growth inhibition, 48 h
VALUE TYPE: TGI

INSERT INTO assay_data (compound, experimental_target, reported_measurement) VALUES
  ('COc1cc(C2c3cc4c(cc3C(O)C3CCC(=O)N23)OCO4)cc(OC)c1OC (configuration not stated)', 'T-47D breast', '> 100 µM'),
  ('COc1ccccc1/C=C1\COc2ccc(O)c(O)c2C1=O', 'T-47D breast', '> 100 µM'),
  ('CCNC(=S)N/N=C/c1cc(OC)ccc1O', 'T-47D breast', '> 100 µM'),
  ('CCCCc1ccc2nc(NC(=O)OC)[nH]c2c1', 'T-47D breast', '> 100 µM'),
  ('CCOC(=O)c1cnc2ccc(Cl)cc2c1NCCCN(C)C', 'T-47D breast', '> 100 µM'),
  ('CCCC1NC(C#N)(C#N)C(CCC)NC1(C#N)C#N (configuration not stated)', 'T-47D breast', '> 71.5 µM'),
  ('O=C(CCc1cccc(O)c1)NCCc1cccc(O)c1', 'T-47D breast', '> 100 µM'),
  ('CC(=O)Nc1ccc2c(C(=O)O)c(C)c(=O)[nH]c2n1', 'T-47D breast', '> 100 µM'),
  ('NNC(=O)CC(=O)Nc1ccc(Cl)cc1', 'T-47D breast', '> 100 µM'),
  ('O=c1c2ccccc2oc2c1ccc1ncccc12', 'T-47D breast', '31.2 µM'),
  ('COCn1c2ccc(OC(C)=O)cc2c2c(=O)oc(C)nc21', 'T-47D breast', '> 100 µM'),
  ('O=C1COC(c2ccccc2O)=NN1CCCN1CCCC1', 'T-47D breast', '> 100 µM'),
  ('CCc1cc(C(N)=O)ccc1-n1nc(C(C)C)c2c(-n3cnc(-c4cnn(C)c4)c3)ccnc21', 'T-47D breast', '> 100 µM'),
  ('Cn1cc(-c2ccc3cc(-c4ccc(CC(=O)Nc5cc(C(C)(C)C)nn5C)cc4)cnc3c2)cn1', 'T-47D breast', '4.81 µM'),
  ('Cc1cc2c(cc1-c1cc3c(cc1C)C(C(C)C)=C(O)C(=O)/C3=C\Nc1nc(-c3ccccc3)cs1)/C(=C/Nc1nc(-c3ccccc3)cs1)C(=O)C(O)=C2C(C)C', 'T-47D breast', '> 100 µM'),
  ('CCN(CC)CCCCCCCCNc1c2ccc(Cl)cc2nc2ccc(OC)cc12', 'T-47D breast', '6.91 µM'),
  ('O=c1c(Cl)nsnc1Cl', 'T-47D breast', '> 31.6 µM'),
  ('O=C(Nc1ccccc1)c1cc2c(cc1Cl)Sc1nccn1S2(=O)=O', 'T-47D breast', '> 72.9 µM'),
  ('COc1ccc(/C=N\N2CC(=O)N3C4C=CC(CC4)N3C2=O)cc1 (configuration not stated)', 'T-47D breast', '> 100 µM'),
  ('Cc1c(CNc2ccc(Cl)c(C(=O)NC(CC(=O)O)C(=O)O)c2)ccc2nc(N)nc(N)c12 (configuration not stated)', 'T-47D breast', '> 1000 µM'),
  ('O=C1CCC/C=C\C[C@H]2C=C(Cl)C(=O)/C2=C/C[C@H](CCCCC(F)(F)F)OC(=O)CCC/C=C\C[C@H]2C=C(Cl)C(=O)/C2=C/C[C@H](CCCCC(F)(F)F)O1', 'T-47D breast', '1.16 µM'),
  ('CSC1=Nc2ccccc2-c2nc(-c3ccccc3)cc(-c3ccccc3)c2C1', 'T-47D breast', '76.4 µM'),
  ('COc1ccc(-c2oc3ccc(C)cc3c(=O)c2O)cc1', 'T-47D breast', '> 100 µM'),
  ('O=C(O)CC(NC(=O)Nc1ccc([N+](=O)[O-])cc1)C(=O)Nc1ccc([N+](=O)[O-])cc1 (configuration not stated)', 'T-47D breast', '> 100 µM'),
  ('CC[C@]1(O)C[C@@H]2CN(Cc3c([nH]c4ccccc34)[C@@](C(=O)OC)(c3cc4c(cc3OC)N(C)[C@H]3[C@@](O)(C(=O)OC)[C@H](OC(C)=O)[C@]5(CC)[C@@H]6C[C@@H]6CN6CC[C@]43[C@@H]65)C2)C1', 'T-47D breast', '> 4.38 µM'),
  ('Cc1nc2c(cnn2-c2ccnc3c(C(F)(F)F)cccc23)c(=O)o1', 'T-47D breast', '> 100 µM'),
  ('O=C1CCCC1C(=O)Nc1ccc2ccccc2c1 (configuration not stated)', 'T-47D breast', '> 100 µM'),
  ('COc1cc(-c2cc(-c3ccc(N(C)C)cc3)nc(N3CCC(O)CC3)c2C#N)cc(OC)c1OC', 'T-47D breast', '4.07 µM'),
  ('O=C(Nc1ccc(Cl)c(Cl)c1)Nc1ccc(Cl)c([N+](=O)[O-])c1', 'T-47D breast', '2.83 µM'),
  ('C#Cc1cccc(NC(=O)Nc2ccccc2NC(=O)CCl)c1', 'T-47D breast', '> 82.5 µM'),
  ('CC(C)OC(=O)c1ccc(NCC2=CC(=O)C=CC2=O)cc1Cl', 'T-47D breast', '7.85 µM'),
  ('CC(C)CC(=O)NC(Nc1ccc(S(=O)(=O)Nc2ncccn2)cc1)(C(F)(F)F)C(F)(F)F', 'T-47D breast', '> 100 µM'),
  ('CC1(CCCC2(C)CCNC2=O)OCCO1 (configuration not stated)', 'T-47D breast', '> 10 µM'),
  ('FC(F)(F)c1ccc2nc(-c3nc(-c4ccccc4)n4ccccc34)[nH]c2c1', 'T-47D breast', '16.9 µM'),
  ('CN(NC(=O)/C(=C/c1ccc(O)cc1)NC(=O)c1ccccc1)c1ccnc2cc(Cl)ccc12', 'T-47D breast', '45.6 µM'),
  ('C=C1C(=O)OC(CCCCCCCC)C1C(=O)O (configuration not stated)', 'T-47D breast', '30.6 µM'),
  ('CC(=O)N1N=C(c2c(O)ccc3ccccc23)CC1C(=O)c1ccco1 (configuration not stated)', 'T-47D breast', '> 100 µM'),
  ('O=C1NN=C(c2ccc(Cl)cc2)CC1C1C(=O)N(c2ccccc2)N=C1c1ccccc1 (configuration not stated)', 'T-47D breast', '> 100 µM'),
  ('COc1ccc(C(=O)c2cc3c(N)c(C(=O)Nc4cccc(Cl)c4)sc3nc2C)cc1', 'T-47D breast', '> 33.3 µM'),
  ('Nn1c(Cc2ccc(Cl)cc2)n[nH]c1=O', 'T-47D breast', '> 100 µM'),
  ('CCOP1(=O)OCC2OC(n3cnc4c(N)ncnc43)C(O)C2O1 (configuration not stated)', 'T-47D breast', '> 100 µM'),
  ('Cc1oc2nc1C(=O)NCc1nc(cs1)C(=O)N[C@H](C(C)C)c1nc(cs1)C(=O)N[C@H]2C', 'T-47D breast', '> 100 µM');

* * *

- Tested on: M19-MEL melanoma
- PROCEDURE TEXT: NCI tumour cell line growth inhibition, 48 h
# key: entry, value: TGI
VALUE TYPE: TGI

INSERT INTO assay_data (compound, reported_measurement) VALUES
  ('CN(C)CCCn1cnc2ncccc2c1=O', '> 100 µM'),
  ('CC(=O)NNc1nc(C)c(C(/C=C/c2ccc(/C=C/C(=N\NC(=O)c3ccncc3)c3sc(NNC(C)=O)nc3C)cc2)=N/NC(=O)c2ccncc2)s1', '> 100 µM'),
  ('COC(=O)C(=O)C(C#N)c1cccc2ccccc12 (stereo not given)', '> 100 µM'),
  ('COC(=O)C1=Cc2cc3c(cc2[C@H](c2ccc4c(c2)OCO4)C1C(=O)OC)OCO3 (stereo not given in full)', '> 100 µM'),
  ('c1ccc([CH2][Sn]([CH2]c2ccccc2)([S]c2cccc3cccnc23)[S]c2cccc3cccnc23)cc1', '0.739 µM');

* * *

- Test system: DU-145 prostate
- PROCEDURE TEXT: NCI tumour cell line growth inhibition, 48 h
# key: entry, value: GI50
VALUE TYPE: GI50

INSERT INTO measurements (compound, value_type, reported_measurement) VALUES
  ('COc1ccc(C(=O)c2cc3c(N)c(C(=O)Nc4cccc(Cl)c4)sc3nc2C)cc1', 'GI50', '1.26 µM'),
  ('COc1ccc(C(=O)CC2(O)C(=O)Nc3c(Cl)ccc(Cl)c32)cc1 (configuration not stated)', 'GI50', '3.44 µM'),
  ('COc1ccc(NC(=O)c2ccc(NC3=C(Cl)C(=O)N(Cc4ccccc4)C3=O)cc2)cc1', 'GI50', '5 µM'),
  ('Cc1c(CNc2ccc(Cl)c(C(=O)NC(CC(=O)O)C(=O)O)c2)ccc2nc(N)nc(N)c12 (configuration not stated)', 'GI50', '0.594 µM'),
  ('Clc1ccc(Cl)c(N/N=C\c2c[nH]c3ccccc23)c1', 'GI50', '10.7 µM'),
  ('COc1ccc([C@H]2c3cc(OC)c(OC)cc3C=C(C=O)C2CO)cc1OC (some centres not stated)', 'GI50', '3.51 µM'),
  ('CCOC(=O)c1cc2c(n1Cc1cccc(OC)c1)-c1oncc1CC2', 'GI50', '2.27 µM'),
  ('C=C1C(=O)OC(CCCCCCCC)C1C(=O)O (configuration not stated)', 'GI50', '15.2 µM'),
  ('CCN(CC)CCCCCCCCNc1c2ccc(Cl)cc2nc2ccc(OC)cc12', 'GI50', '1.55 µM'),
  ('COc1ccccc1/C=C1\COc2ccc(O)c(O)c2C1=O', 'GI50', '2.32 µM'),
  ('O=P(O)(O)OC1C(OP(=O)(O)O)C(OP(=O)(O)O)C(OP(=O)(O)O)C(OP(=O)(O)O)C1OP(=O)(O)O (configuration not stated)', 'GI50', '> 2000 µM'),
  ('CCN1CCC(C(=O)Nc2n[nH]c3nnc(-c4cccc(F)c4F)cc23)CC1', 'GI50', '10.3 µM');
